Taken from patent US20260242735A1.

measured-on: human CD33 T200A (human, UniProt P20138 18-364)
Sequence (P20138 18-364 T200A limits assumed): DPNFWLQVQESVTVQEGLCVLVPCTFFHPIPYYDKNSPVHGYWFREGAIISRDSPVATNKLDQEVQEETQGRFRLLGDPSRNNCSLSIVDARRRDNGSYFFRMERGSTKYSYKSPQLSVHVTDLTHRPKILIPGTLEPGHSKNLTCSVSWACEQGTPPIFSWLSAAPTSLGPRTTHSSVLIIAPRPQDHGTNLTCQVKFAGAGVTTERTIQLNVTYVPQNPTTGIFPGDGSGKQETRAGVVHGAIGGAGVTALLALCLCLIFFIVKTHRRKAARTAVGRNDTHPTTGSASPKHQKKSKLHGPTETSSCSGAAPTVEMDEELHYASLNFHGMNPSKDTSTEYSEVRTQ
assay-info: alanine scan, flow cytometry, HEK293-T;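 also: antibody binding to each alanine-substituted CD33 mutant expressed transiently in HEK293-T, read as fluorescence minus background, mean of duplicates, relative to wild-type CD33 set as 100%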
Catalogue of binders with associated Mean % WT Binding
Please report the result as a number followed by the unit.

binder	Mean % WT Binding
Refmab #1 (antibody, V domains shown, In the alanine scan antibodies were used as IgG or Fab; also called hP67.6) VH: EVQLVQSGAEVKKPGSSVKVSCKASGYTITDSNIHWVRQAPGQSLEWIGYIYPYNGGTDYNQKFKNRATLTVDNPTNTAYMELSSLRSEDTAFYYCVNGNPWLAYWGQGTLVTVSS VL: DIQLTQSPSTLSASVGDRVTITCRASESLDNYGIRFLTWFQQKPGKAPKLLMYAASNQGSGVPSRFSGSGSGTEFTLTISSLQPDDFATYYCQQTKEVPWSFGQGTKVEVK	85.2%
Refmab #4 (antibody, V domains shown, In the alanine scan antibodies were used as IgG or Fab) VH: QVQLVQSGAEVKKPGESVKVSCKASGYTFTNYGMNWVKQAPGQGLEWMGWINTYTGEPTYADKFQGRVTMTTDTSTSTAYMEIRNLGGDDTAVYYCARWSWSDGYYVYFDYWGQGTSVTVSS VL: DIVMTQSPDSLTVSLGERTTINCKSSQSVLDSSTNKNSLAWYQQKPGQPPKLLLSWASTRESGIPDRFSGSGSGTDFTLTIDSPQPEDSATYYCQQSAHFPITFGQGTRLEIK	88.8%
Refmab #2 (antibody, V domains shown, In the alanine scan antibodies were used as IgG or Fab) VH: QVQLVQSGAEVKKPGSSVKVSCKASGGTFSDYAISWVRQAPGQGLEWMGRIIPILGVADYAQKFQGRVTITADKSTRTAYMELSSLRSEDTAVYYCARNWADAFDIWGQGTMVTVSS VL: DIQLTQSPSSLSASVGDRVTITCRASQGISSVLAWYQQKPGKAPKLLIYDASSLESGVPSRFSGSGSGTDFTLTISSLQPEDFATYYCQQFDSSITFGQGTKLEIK	111%

Proceeding to the next binder to report its Mean % WT Binding.
Give the measured Mean % WT Binding of Refmab #3 (antibody, V domains shown, In the alanine scan antibodies were used as IgG or Fab) VH: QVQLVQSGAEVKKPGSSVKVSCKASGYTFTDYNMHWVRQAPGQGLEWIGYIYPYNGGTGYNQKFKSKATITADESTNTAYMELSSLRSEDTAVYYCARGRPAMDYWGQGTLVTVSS VL: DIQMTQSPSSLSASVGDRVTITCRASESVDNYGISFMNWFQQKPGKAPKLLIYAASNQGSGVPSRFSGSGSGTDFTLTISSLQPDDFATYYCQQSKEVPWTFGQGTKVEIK .
82.4%
